Measured Target: Human Polθ polymerase domain (aa1820-2590) (Homo sapiens, UniProt O75417)
Construct: Human Polθ polymerase domain (aa1820-2590) was expressed in E. coli; made in house; host or cells: E. coli
Sequence (O75417 1820-2590): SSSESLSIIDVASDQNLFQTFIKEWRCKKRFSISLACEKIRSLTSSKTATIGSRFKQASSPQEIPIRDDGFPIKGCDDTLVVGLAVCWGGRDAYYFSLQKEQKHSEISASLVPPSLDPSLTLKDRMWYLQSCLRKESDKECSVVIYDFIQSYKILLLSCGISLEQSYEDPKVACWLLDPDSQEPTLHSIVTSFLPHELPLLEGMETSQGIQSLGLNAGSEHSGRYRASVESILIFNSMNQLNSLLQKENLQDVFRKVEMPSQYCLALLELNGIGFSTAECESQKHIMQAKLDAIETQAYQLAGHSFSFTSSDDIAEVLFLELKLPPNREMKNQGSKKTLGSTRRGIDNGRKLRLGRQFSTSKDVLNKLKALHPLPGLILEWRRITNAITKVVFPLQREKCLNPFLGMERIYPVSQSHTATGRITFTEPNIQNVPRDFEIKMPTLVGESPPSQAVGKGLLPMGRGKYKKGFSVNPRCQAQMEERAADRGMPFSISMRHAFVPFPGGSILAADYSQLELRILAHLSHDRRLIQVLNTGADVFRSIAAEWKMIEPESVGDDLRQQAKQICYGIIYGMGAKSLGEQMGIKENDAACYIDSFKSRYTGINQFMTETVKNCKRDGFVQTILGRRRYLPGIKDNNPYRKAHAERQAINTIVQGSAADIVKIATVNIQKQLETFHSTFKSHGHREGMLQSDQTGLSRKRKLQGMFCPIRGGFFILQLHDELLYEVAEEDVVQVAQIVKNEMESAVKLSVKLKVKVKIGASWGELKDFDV
Experiment Notes: Polθ Polymerase Domain Kinact/KI Assay (PicoGreen)
Format: biochemical
Experimental Parameters: 0.8 nM Polθ, 100 nM DNA substrate, kobs vs [I] fit for 2-step covalent inhibitor
Measured Property: log10(Kinact/Kl) (log10 of the value in M⁻¹ s⁻¹)
In plain terms, each number is the log10 of measured Kinact/Kl in M⁻¹ s⁻¹.

Here are 4 molecules together with their reported answers.
Molecule	Value Observed
C=CC(=O)N1Cc2nc(CN3C[C@H]4CC(=O)N(c5cc(C(F)(F)F)cc(C)n5)[C@@H]4C(=O)N(C)c4cccc(C)c43)cn2C[C@@H]1C (racemic) [Example 206b]	6.62
C=CC(=O)N1CC2(C1)CN(C(=O)CN1C[C@H]3CC(=O)N(c4cc(C(F)(F)F)cc(C)n4)[C@@H]3C(=O)N(C)c3cccc(F)c31)c1nccn12	6.06
C=CC(=O)N1CCc2ncn(CCN3C[C@H]4CC(=O)N(c5cc(C(F)(F)F)cc(C)n5)[C@@H]4C(=O)N(C)c4cccc(F)c43)c2C1	5.28
C=CC(=O)N1Cc2cc(CN3C[C@H]4CC(=O)N(c5cc(C(F)(F)F)cc(C)n5)[C@@H]4C(=O)N(C)c4cccc(Cl)c43)nn2C[C@@H]1C (racemic) [Example 294b]	6.39

Then this molecule:
Request: Return reported log10(Kinact/Kl); argument: C=CC(=O)N1Cc2cc(CN3C[C@H]4CC(=O)N(c5cc(C(F)(F)F)cc(C)n5)[C@@H]4C(=O)N(C)c4cccc(C)c43)cnc2C1CO (single isomer, unassigned)
Response: 6.28

###

Measured Target: Human Polθ polymerase domain (aa1820-2590) (Homo sapiens)
Construct: Human Polθ polymerase domain (aa1820-2590) was expressed in E. coli; made in house; host or cells: E. coli
Experiment Notes: Polθ Polymerase Domain Kinact/KI Assay (PicoGreen)
Assay type: biochemical
Experimental Parameters: 0.8 nM Polθ, 100 nM DNA substrate, kobs vs [I] fit for 2-step covalent inhibitor
Measured Property: log10 of Kinact/Kl (log10 of the value in M⁻¹ s⁻¹)
In plain terms, each number is the log10 of measured Kinact/Kl in M⁻¹ s⁻¹.

Compound	Measured Target	log10 of Kinact/Kl
C=CC(=O)N1Cc2c(CN3C[C@H]4CC(=O)N(c5cc(C(F)(F)F)cc(C)n5)[C@@H]4C(=O)N(C)c4cccc(C)c43)nn(C)c2C1 [Example 317]	Human Polθ polymerase domain (aa1820-2590) (Homo sapiens)	5.36

Your task in this section: give log10 of Kinact/Kl for each listed record.
1. C=CC(=O)Nc1ccc(CN2C[C@H]3CC(=O)N(c4cc(C(F)(F)F)cc(C)n4)[C@@H]3C(=O)N(C)c3cccc(C)c32)cc1N(C)CCN(C)C [Example 91]
2. C=C(CN(C)C)C(=O)NCCCCCN1C[C@H]2CC(=O)N(c3cc(C(F)(F)F)cc(C)n3)[C@@H]2C(=O)N(C)c2cccc(C)c21 [Example 84]
3. C/C=C(\CN(C)C)C(=O)Nc1ccc(CN2C[C@H]3CC(=O)N(c4cc(C(F)(F)F)cc(C)n4)[C@@H]3C(=O)N(C)c3cccc(C)c32)cc1 [Example 89]

Response:
1. 6.64
2. 6.56
3. 6.38

Your task in this section: give log10 of Kinact/Kl for each listed record.
1. C=CC(=O)N1C[C@H]2CN(CCN3C[C@H]4CC(=O)N(c5cc(C(F)(F)F)cc(C)n5)[C@@H]4C(=O)N(C)c4cccc(F)c43)CCN2C(=O)[C@@H]1C (single isomer, unassigned) [Example 61]
2. Cc1cc(C(F)(F)F)cc(N2C(=O)C[C@@H]3CN(Cc4ccc([C@H]5CCCN5C(=O)/C=C/CN(C)C)cc4)c4c(F)cccc4N(C)C(=O)[C@H]32)n1 (racemic) [Example 170a]
3. C=C(CN(C)C)C(=O)N1CC(COCCN2C[C@H]3CC(=O)N(c4cc(C(F)(F)F)cc(C)n4)[C@@H]3C(=O)N(C)c3cccc(Cl)c32)C1 [Example 162]
4. Cc1cc(C(F)(F)F)cc(N2C(=O)C[C@@H]3CN(CCCOC4CN(C(=O)C5=CCCNC5)C4)c4c(C)cccc4N(C)C(=O)[C@H]32)n1 [Example 82]

Response:
5.70
5.94
6.47
5.96

###

I'd be grateful if you could share measured Kinact/Kl for these entries.
Measured Target: Human Polθ polymerase domain (aa1820-2590) (Homo sapiens, UniProt O75417)
Construct: Human Polθ polymerase domain (aa1820-2590) was expressed in E. coli; made in house; host or cells: E. coli
Experiment Notes: Polθ Polymerase Domain Kinact/KI Assay (PicoGreen)
Format: biochemical
Experimental Parameters: 0.8 nM Polθ, 100 nM DNA substrate, kobs vs [I] fit for 2-step covalent inhibitor
Description: Polθ Polymerase Domain Kinact/KI Assay A PicoGreen assay was used to measure the Kinact and KI values of covalent compounds that inhibit the activity of Polθ in vitro. Human Polθ polymerase domain (aa1820-2590) was expressed in E. coli, purified, aliquoted and stored at −80° C. until required. Polθ substrate was generated from a 1.2:1 mix of DNA II Short to DNA II Long to give a final concentration of […] substrate in annealing buffer (20 mM Tris pH 7.5, 50 mM NaCl). […]
One number for each entry, in M⁻¹ s⁻¹.

Here are 4 compounds together with their reported answers.
Compound	Measured Target	Value Observed
C=CC(=O)N1CC(N2CCC(F)(CN3C[C@H]4CC(=O)N(c5cc(C(F)(F)F)cc(C)n5)[C@@H]4C(=O)N(C)c4cccc(Cl)c43)CC2)C1	Human Polθ polymerase domain (aa1820-2590) (Homo sapiens, UniProt O75417)	1.59e+06
C=CC(=O)N1CC[C@]12CCN(CCN1C[C@H]3CC(=O)N(c4cc(C(F)(F)F)cc(C)n4)[C@@H]3C(=O)N(C)c3cccc(F)c31)C2 (racemic) [Example 21a]	Human Polθ polymerase domain (aa1820-2590) (Homo sapiens, UniProt O75417)	54000
C=CC(=O)N1CC2(C1)NCCN(CCN1C[C@H]3CC(=O)N(c4cc(C(F)(F)F)cc(C)n4)[C@@H]3C(=O)N(C)c3cccc(F)c31)C2C (single isomer, unassigned) [Example 34b]	Human Polθ polymerase domain (aa1820-2590) (Homo sapiens, UniProt O75417)	1.69e+06
C=CC(=O)N1CC(c2nc(CN3C[C@H]4CC(=O)N(c5cc(C(F)(F)F)cc(C)n5)[C@@H]4C(=O)N(C)c4cccc(F)c43)n(C)n2)C1	Human Polθ polymerase domain (aa1820-2590) (Homo sapiens, UniProt O75417)	170000

Then this compound:
Request: Return reported Kinact/Kl; argument: C=CC(=O)N1Cc2nc(CN3C[C@H]4CC(=O)N(c5cc(C(F)(F)F)cc(C)n5)[C@@H]4C(=O)N(C)c4cccc(Cl)c43)cn2CC1CO (some centres unmarked)
Response: 3.83e+06

###

Measured Target: Human Polθ polymerase domain (aa1820-2590) (Homo sapiens, UniProt O75417)
Construct: Human Polθ polymerase domain (aa1820-2590) was expressed in E. coli; made in house; host or cells: E. coli
Experiment Notes: Polθ Polymerase Domain Kinact/KI Assay (PicoGreen)
Type: biochemical
Experimental Parameters: 0.8 nM Polθ, 100 nM DNA substrate, kobs vs [I] fit for 2-step covalent inhibitor
I'd be grateful if you could share measured Kinact/Kl for these entries.
One number for each entry, in M⁻¹ s⁻¹.

Here are 2 molecules together with their reported answers.
Molecule	Measured Property	Units Text	Value Observed
C=CC(=O)N1CC(N2CCC(CN3C[C@H]4CC(=O)N(c5cc(C(F)(F)F)cc(C)n5)[C@@H]4C(=O)N(C)c4cccc(Cl)c43)CC2)C1 [Example 92]	Kinact/Kl	M⁻¹ s⁻¹	2.56e+06
C=CC(=O)N1CC(n2cnc(CN3C[C@H]4CC(=O)N(c5cc(C(F)(F)F)cc(C)n5)[C@@H]4C(=O)N(C)c4cccc(F)c43)c2)C1 [Example 38]	Kinact/Kl	M⁻¹ s⁻¹	2.39e+06

Request: Return reported Kinact/Kl; argument: C=CC(=O)N1Cc2nc(CN3C[C@H]4CC(=O)N(c5cc(C(F)(F)F)cc(C)n5)[C@@H]4C(=O)N(C)c4cccc(C)c43)oc2C1 [Example 316]
Response: 610000
